# test.system: recombinant His-tag Wip1 full length protein (amino acids #1-605) (Homo sapiens (Human), UniProt O15297)
# Sequence (O15297 whole entry): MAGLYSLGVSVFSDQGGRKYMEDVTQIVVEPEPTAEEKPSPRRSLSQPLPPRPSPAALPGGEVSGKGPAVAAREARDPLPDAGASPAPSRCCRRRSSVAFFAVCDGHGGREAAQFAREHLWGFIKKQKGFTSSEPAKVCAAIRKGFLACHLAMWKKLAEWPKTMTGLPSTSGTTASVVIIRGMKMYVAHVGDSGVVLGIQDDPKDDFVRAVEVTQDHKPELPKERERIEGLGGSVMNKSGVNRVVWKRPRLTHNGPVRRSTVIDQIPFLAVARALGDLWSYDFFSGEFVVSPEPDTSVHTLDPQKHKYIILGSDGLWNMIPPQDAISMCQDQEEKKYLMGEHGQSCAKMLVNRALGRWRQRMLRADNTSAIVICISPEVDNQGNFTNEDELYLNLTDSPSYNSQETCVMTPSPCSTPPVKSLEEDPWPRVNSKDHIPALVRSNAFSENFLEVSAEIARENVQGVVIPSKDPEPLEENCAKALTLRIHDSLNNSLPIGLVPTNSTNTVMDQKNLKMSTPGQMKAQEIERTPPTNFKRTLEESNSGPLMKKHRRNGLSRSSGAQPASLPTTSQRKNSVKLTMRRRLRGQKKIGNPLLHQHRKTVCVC
# assay.summary: Wip1 full length phosphatase enzyme FDP assay
# study.conditions: fluorescein diphosphate (FDP) substrate, RT 2 hours, fluorescence Ex485/Em535
measurement.label: pIC50
Just the number, please; pIC50 means minus log10 of the concentration in mol/L.

>>> observed("CN(Cc1ncc(C(=O)N[C@@H](CC2CCCCC2)C(=O)Nc2ccncc2)s1)c1cncc(Cl)c1 [Compound 301]")
7.64
>>> observed("CCNC(=O)[C@H](CC1CCCC1)NC(=O)c1ccc([C@H](C)Nc2cc(Cl)cnc2C)s1 [Compound 77]")
8.00

Identify measured pIC50 associated with Cc1cc(NC(=O)[C@H](CC2CCCC2)NC(=O)c2cnc([C@H](C)Nc3cccc(Cl)c3)s2)ccn1 [Compound 119]
6.94

Input CC[C@@H](Nc1cc(Cl)cnc1C)c1ccc(C(=O)N[C@@H](CC2CCCC2)C(=O)N[C@H]2CC2(F)F)s1 [Compound 51] , output reported pIC50.
6.95

In one line, give reported pIC50 of the entry C[C@H](Nc1cc(Cl)cnc1C1CC1)c1ccc(C(=O)N[C@@H](CC2CCCC2)C(=O)NC2CC2)s1 [Compound 70] .
8.10

Identify measured pIC50 corresponding to Cc1ncc(Cl)cc1NC(C)c1ccc(C(=O)N[C@@H](CC2CCCC2)C(=O)NC23CC(C2)C3)s1 (stereo partly shown) [Compound 10]
7.74

Supply recorded pIC50 for CNC(=O)[C@H](CC1CCCC1)NC(=O)c1ccc([C@H](C)Nc2cc(Cl)cnc2C)s1 [Compound 74] here.
7.57

###

# test.system: recombinant His-tag Wip1 full length protein (amino acids #1-605) (Homo sapiens (Human))
# assay.summary: Wip1 full length phosphatase enzyme FDP assay
# study.conditions: fluorescein diphosphate (FDP) substrate, RT 2 hours, fluorescence Ex485/Em535
measurement.label: pIC50
Scale note: pIC50 = -log10(concentration in M).

Identify measured pIC50 corresponding to Cc1ncc(Cl)cc1N[C@@H](C)c1ccc(C(=O)N[C@@H](CC2CCCC2)C(=O)NC23CC(F)(C2)C3)s1
8.00

Report measured pIC50; entry is Cc1ncc(Cl)cc1N[C@@H](C)c1ccc(C(=O)N[C@@H](CC2CCCC2)C(=O)NC2CC2(F)F)s1 (stereo partly shown)
8.22

###

// reported pIC50 for each item listed
# test.system: recombinant His-tag Wip1(2-420) protein (amino acids #2-420) (Homo sapiens (Human), UniProt O15297)
# Sequence (O15297 2-420): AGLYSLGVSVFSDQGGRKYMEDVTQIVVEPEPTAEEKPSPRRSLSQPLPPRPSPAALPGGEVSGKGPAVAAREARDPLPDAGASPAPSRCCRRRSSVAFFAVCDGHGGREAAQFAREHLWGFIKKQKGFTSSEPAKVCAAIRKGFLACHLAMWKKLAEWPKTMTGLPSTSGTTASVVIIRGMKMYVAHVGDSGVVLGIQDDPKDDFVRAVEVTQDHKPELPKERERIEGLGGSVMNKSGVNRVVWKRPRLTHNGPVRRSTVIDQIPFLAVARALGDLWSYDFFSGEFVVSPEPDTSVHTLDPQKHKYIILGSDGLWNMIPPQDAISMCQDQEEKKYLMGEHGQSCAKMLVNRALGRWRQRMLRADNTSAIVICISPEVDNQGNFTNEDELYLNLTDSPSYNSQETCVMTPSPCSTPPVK
# assay.summary: Wip1(2-420) phosphatase enzyme FDP assay
# study.conditions: fluorescein diphosphate (FDP) substrate, RT 2 hours, fluorescence Ex485/Em535; read-out: WIP1 (Truncated 2-420) FDP Assay: IC50
Just so you know, pIC50 here is -log10 of the concentration in molar units; reply with that number alone.

Some solved cases for reference:
>>> observed("Cc1ncc(Cl)cc1N[C@@H](C)c1ncc(C(=O)N[C@@H](CC2CCCC2)C(=O)NC23CC(C2)C3)s1 [Compound 310]")
5.99
>>> observed("Cc1cc(NC(=O)[C@H](CC2CCCC2)NC(=O)c2ccc([C@H](C)Nc3cc(Cl)cnc3C)s2)ccn1")
8.40
>>> observed("C[C@@H](Nc1cc(Cl)cnc1C(=O)O)c1ccc(C(=O)N[C@@H](CC2CCCC2)C(=O)NC2CC2)s1")
6.09

Okay, now this compound:
Give the value of pIC50 reported for the following: Cc1ncc(Cl)cc1N[C@@H](C)c1ccc(C(=O)N[C@@H](CC2CCCC2)C(=O)Nc2ccn(C)n2)s1
8.00
